Where do the numbers come from? From patent US20150086555A1.

# ASSAY_SYSTEM: recombinant soluble homotrimeric HA of A/swine/Ontario/01911-2/99 (H4N6) (Influenza A virus A/Swine/Ontario/01911-2/99 (H4N6))
# PROTOCOL_DETAILS: trimeric HA microarray, transfection supernatant set 3
# CONDITION_PARAMETERS: remark: other sources report otherwise
READOUT_LABEL: Trimeric HA Binding: RLU (RLU)
I only need the number, in RLU, no unit after it.

# query: Trimeric HA Binding: RLU of entry TCN-530 (5248_H10a) (antibody, V domains shown) VH: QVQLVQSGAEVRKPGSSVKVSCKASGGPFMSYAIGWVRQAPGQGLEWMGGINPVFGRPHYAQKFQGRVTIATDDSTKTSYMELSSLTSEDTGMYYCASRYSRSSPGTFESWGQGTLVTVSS VL: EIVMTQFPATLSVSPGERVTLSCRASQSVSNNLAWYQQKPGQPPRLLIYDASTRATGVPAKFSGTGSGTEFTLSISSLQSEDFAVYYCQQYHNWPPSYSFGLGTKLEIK 123
